- Test system: PBM cells
- Assay procedure: Cytotoxicity assay in PBM cells
- Type: cell-based, human
- Stated conditions: Tables 2-4; read-out: PBM IC50
pIC50: −log10 of the molar value.
Observable: pIC50

> print(dat)
                                   compound  result.number
1  CCOC(=O)[C@H](C)NP(=O)(OC[C@H]1O[C@@H](n2cnc3c(N)nc(N)nc32)CC1N=[N+]=[N-])Oc1ccccc1 (some centres unmarked) [RS-788]           4.42
2  CCOC(=O)[C@H](C)NP(=O)(OC[C@H]1O[C@@H](n2cnc3c(N)nc(N)nc32)CC1N=[N+]=[N-])Oc1ccccc1 (some centres unmarked) [RS-783]           5.02

###

- System: PBM cells
- Assay procedure: Cytotoxicity assay in PBM cells
- Assay type: cell-based, human
- Stated conditions: Table 5; read-out: Toxicity IC50 PBM
Observable: IC50

> print(dat)
                                   compound   result
1  C[C@@]1(O)[C@H](O)[C@@H](CO)O[C@H]1n1ccc(N)nc1=O [2′-Me—C, reference compound]  29.4 µM

###

- System: HIV-1 AZT2 (D67N/K70R/T215F/K219Q)
- Assay procedure: microbe, parasite or virus in culture
- Format: cell-based
- Stated conditions: Human immunodeficiency virus 1; P4/R5 cells, mean ± standard deviation
- Description: In a 96-well plate, two- or three-fold serial dilutions of an inhibitor were added to P4/R5 cells in triplicate. […] At 48 h post-infection, a cell lysis buffer and luminescent substrate (Gal-Screen; Tropix/Applied Biosystems) was added to each well, and relative light unit values were determined using a luminometer (ThermoLabSystems, Waltham, Mass.). Virus stocks were prepared as described above. […]
Observable: EC50 (µM)

> print(dat)
                                   compound  result.number
1  CCOC(=O)[C@H](C)NP(=O)(OC[C@H]1O[C@@H](n2cnc3c(N)nc(N)nc32)CC1N=[N+]=[N-])Oc1ccccc1 (some centres unmarked) [RS-788]          0.274
2  Cc1cn([C@H]2C[C@H](N=[N+]=[N-])[C@@H](CO)O2)c(=O)[nH]c1=O [AZT, 3′-azido-3′-deoxythymidine, reference compound]           11.1

###

- Test system: HIV-1/LAI
- Assay procedure: Anti-HIV-1 assay in PBM cells
- Assay type: cell-based
- Stated conditions: Tables 2-4; n = 3 for the MP prodrugs; read-out: HIV EC50
Observable: EC50 (nM)

> print(dat)
                                   compound  assayed.target  result.number
1  CCOC(=O)[C@H](C)NP(=O)(OC[C@H]1O[C@@H](n2cnc3c(N)nc(N)nc32)CC1N=[N+]=[N-])Oc1ccccc1 (some centres unmarked) [RS-788]       HIV-1/LAI              9
2  CCOC(=O)[C@H](C)NP(=O)(OC[C@H]1O[C@@H](n2cnc3c(N)nc(N)nc32)CC1N=[N+]=[N-])Oc1ccccc1 (some centres unmarked) [RS-783]       HIV-1/LAI            3.4

###

- System: HSV-1
- Assay procedure: HSV-1 drug susceptibility assay
- Type: cell-based
- Stated conditions: Human alphaherpesvirus 1
Observable: EC90

> print(dat)
                                   compound  observable    result
1  CC(C)(CO)Nc1nc(N)nc2c1ncn2[C@H]1CC(N=[N+]=[N-])[C@@H](CO)O1 (stereo partly drawn) [drawing 50]        EC90  > 100 µM
2  C=CCN(C)c1nc(N)nc2c1ncn2[C@H]1CC(N=[N+]=[N-])[C@@H](CO)O1 (stereo partly drawn) [drawing 48]        EC90  > 100 µM
3  CC(CO)Nc1nc(N)nc2c1ncn2[C@H]1CC(N=[N+]=[N-])[C@@H](CO)O1 (stereo partly drawn) [drawing 51]        EC90  > 100 µM
